Cited source for all entries: patent US20220340684A1

kon values for the binders below.
# ASSAYED_SYSTEM: T1, Recombinant human TRIM21 PRYSPRY domain (His-tagged, expressed in E. coli BL21 (DE3)) (human, UniProt P19474 287-475, biotinylated when used as bait for biopanning and in the ELISAs (sites not given))
# T1 construct: Purified on Ni-NTA and by gel filtration; Analyte in SPR; biotinylated form used in biopanning and ELISA; also called PRYSPRY domain of TRIM21; bait protein; not shown: N-terminal His-tag of the pQE-2 vector
# T1 sequence (P19474 287-475): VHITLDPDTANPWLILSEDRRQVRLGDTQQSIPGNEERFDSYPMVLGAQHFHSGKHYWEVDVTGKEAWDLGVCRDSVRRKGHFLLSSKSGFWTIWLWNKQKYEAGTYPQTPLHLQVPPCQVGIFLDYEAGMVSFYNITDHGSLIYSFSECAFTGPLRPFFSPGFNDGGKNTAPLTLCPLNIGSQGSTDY
# TEST: SPR as in Example 1.10, TRIM21 PRYSPRY domain;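 note: antibodies amine-coupled to a GLC chip on a ProteON XPR36, TRIM21 flowed at five concentrations in PBS with 0.05% Tween-20, kinetics fitted to a Langmuir 1:1 model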
Numeric answer only, unit M⁻¹ s⁻¹ assumed.

[[record]]
binder = "Fc region SN 2 of FIG. 13 (IgG1 256P/433S/434H) (other) PCPAPELLGGPSVFLFPPKPKDTLMISRPPEVTCVVVDVSHEDPEVKFNWYVDGVEVHNAKTKPREEQYNSTYRVVSVLTVLHQDWLNGKEYKCKVSNKALPAPIEKTISKAKGQPREPQVYTLPPSRDELTKNQVSLTCLVKGFYPSDIAVEWESNGQPENNYKTTPPVLDSDGSFFLYSKLTVDKSRWQQGNVFSCSVMHEALSHHYTQKSLSLSPGK"
measure_name = "kon"
value_reported = "4.66e+06"

[[record]]
binder = "Fc region SN 1 of FIG. 13 (IgG1 256P/433S/434H/440G) (other) PCPAPELLGGPSVFLFPPKPKDTLMISRPPEVTCVVVDVSHEDPEVKFNWYVDGVEVHNAKTKPREEQYNSTYRVVSVLTVLHQDWLNGKEYKCKVSNKALPAPIEKTISKAKGQPREPQVYTLPPSRDELTKNQVSLTCLVKGFYPSDIAVEWESNGQPENNYKTTPPVLDSDGSFFLYSKLTVDKSRWQQGNVFSCSVMHEALSHHYTQKGLSLSPGK"
measure_name = "kon"
value_reported = "7.05e+06"


Pending binder:
## Input What value of kon has been reported for the following binder? Fc region SN 10 of FIG. 13 (IgG1 256P/433V/434H/440R) (other) PCPAPELLGGPSVFLFPPKPKDTLMISRPPEVTCVVVDVSHEDPEVKFNWYVDGVEVHNAKTKPREEQYNSTYRVVSVLTVLHQDWLNGKEYKCKVSNKALPAPIEKTISKAKGQPREPQVYTLPPSRDELTKNQVSLTCLVKGFYPSDIAVEWESNGQPENNYKTTPPVLDSDGSFFLYSKLTVDKSRWQQGNVFSCSVMHEALVHHYTQKRLSLSPGK
## Output 515000
